- ASSAYED SYSTEM: Adrenergic receptor beta (Rattus norvegicus, UniProt P18090+P10608+P26255)
- ASSAY METHOD TEXT: Beta-adrenergic agonistic activity in rat uterus preincubated with phenoxybenzamine (12 uM) for 30 min
- Assay type: functional, tissue-based
MEASURED METRIC: IC50 (nM)

[[record]]
compound = "CCOC(=O)CCc1ccc2c(c1)C[C@H](NC[C@H](O)c1cccc(Cl)c1)CC2.Cl"
assayed_system = "Adrenergic receptor beta (Rattus norvegicus, UniProt P18090+P10608+P26255)"
measured_metric = "IC50"
reading = 480

[[record]]
compound = "CCOC(=O)COc1ccc2c(c1)C[C@@H](NC[C@H](O)c1cccc(Cl)c1)CC2.Cl [AMIBEGRON HYDROCHLORIDE]"
assayed_system = "Adrenergic receptor beta (Rattus norvegicus, UniProt P18090+P10608+P26255)"
measured_metric = "IC50"
reading = 499

[[record]]
compound = "CCOC(=O)CCc1ccc2c(c1)CC(NCC(O)c1cccc(Cl)c1)CC2.Cl (centres undefined)"
assayed_system = "Adrenergic receptor beta (Rattus norvegicus, UniProt P18090+P10608+P26255)"
measured_metric = "IC50"
reading = 350

[[record]]
compound = "CCOC(=O)CCc1ccc2c(c1)C[C@@H](NC[C@H](O)c1cccc(Cl)c1)CC2.Cl"
assayed_system = "Adrenergic receptor beta (Rattus norvegicus, UniProt P18090+P10608+P26255)"
measured_metric = "IC50"
reading = 319

